# credit: ChEMBL document CHEMBL5058577

System: HEK-293T
Assay: Multiplex assay against HEK293T
Type: toxicity, cell-based
Details: human, 48 h, 10 µM, compound concentration 10 uM, replicate 1
MEASURED QUANTITY: Population Hoechst High Intensity Objects (%)
Give the number; % is assumed, so skip it.

Prompt: What does the record list as Population Hoechst High Intensity Objects (%) for CCCC(CCC)C(=O)O ?
Response: 3

Prompt: Sample CN1CCN(c2nc3cc(C(F)(F)F)ccc3n3cccc23)CC1.O=C(O)/C=C\C(=O)O.O=C(O)/C=C\C(=O)O — what was its Population Hoechst High Intensity Objects (%)?
Response: 10

Prompt: Which Population Hoechst High Intensity Objects (%) value belongs to Cc1ccc(/C(=C\CN2CCCC2)c2ccccn2)cc1 ?
Response: 6

Prompt: // Population Hoechst High Intensity Objects (%) lookup, key: CN(C)CCCc1cc(C(=O)Nc2ccc(-c3ccncc3)cc2)ccc1O.Cl.Cl
Response: 5

* * *

Reported Population Membrane Permeable-Phenotype (%) values for a set of compounds
Tested on: HEK-293T
Experiment: Multiplex assay against HEK293T
Type: toxicity, cell-based
Conditions: human, 48 h, 10 µM, compound concentration 10 uM, replicate 1
Number first, unit second.

>  <COMPOUND>
COc1c(C)cc(NC(=O)c2nn(Cc3ccc(F)cc3)c3c2CN(C(=O)c2ccc[nH]2)C[C@]3(C)C(N)=O)cc1C

>  <TESTED TARGET>
HEK-293T

>  <OBSERVED RESULT>
0%

$$$$
>  <COMPOUND>
CCCn1c(=O)c2[nH]c(C3CCCC3)nc2n(CCC)c1=O

>  <TESTED TARGET>
HEK-293T

>  <OBSERVED RESULT>
1%

$$$$
>  <COMPOUND>
CN(C)c1ccnc2sc3c(=O)n(N4CCCCCC4)cnc3c12

>  <TESTED TARGET>
HEK-293T

>  <OBSERVED RESULT>
0%

$$$$
>  <COMPOUND>
CSc1ccccc1N1CCN(CCCCCC(=O)NC2CCCc3ccccc32)CC1.Cl (stereo not given)

>  <TESTED TARGET>
HEK-293T

>  <OBSERVED RESULT>
0%

$$$$

Okay, now this compound:
Prompt: Please give the measured Population Membrane Permeable-Phenotype (%) for this compound: Cc1ccc(F)cc1C(=O)Nc1ccc(C(=O)N2Cc3cccn3Cc3ccccc32)c(Cl)c1
Response: 0%

* * *

Test system: HEK-293T
Experiment: Multiplex assay against HEK293T
Assay type: toxicity, cell-based
Settings: human, 12 h, 10 µM, compound concentration 10 uM, replicate 1
MEASURED QUANTITY: Population Mitochondria Different-Phenotype (%)
Your answer should be a plain number; it is taken to be in %.

# annotated cases, reported Population Mitochondria Different-Phenotype (%) shown
>  <COMPOUND>
Cc1nc2ccc(Oc3ccc(F)cc3)cc2c(=O)n1C[C@H]1CCCN(C(C)C)C1.Cl

>  <MEASUREMENT UNITS>
%

>  <OBSERVED RESULT>
81

$$$$
>  <COMPOUND>
CNC[C@H](O)c1ccc(O)c(O)c1 [EPINEPHRINE]

>  <MEASUREMENT UNITS>
%

>  <OBSERVED RESULT>
65

$$$$
>  <COMPOUND>
Cc1ccc(F)cc1C(=O)Nc1ccc(C(=O)N2Cc3cccn3Cc3ccccc32)c(Cl)c1 [LIXIVAPTAN]

>  <MEASUREMENT UNITS>
%

>  <OBSERVED RESULT>
75

$$$$
>  <COMPOUND>
C[C@H]1[C@H]2CC[C@H]3[C@@H]4CC=C5C[C@@H](N(C)C)CC[C@]5(C)[C@H]4CC[C@]23CN1C [CONESSINE]

>  <MEASUREMENT UNITS>
%

>  <OBSERVED RESULT>
56

$$$$
>  <COMPOUND>
CN(C)CCCc1cc(C(=O)Nc2ccc(-c3ccncc3)cc2)ccc1O.Cl.Cl

>  <MEASUREMENT UNITS>
%

>  <OBSERVED RESULT>
49

$$$$
>  <COMPOUND>
COc1ccccc1N1CCN(CCCCNC(=O)c2ccc3ccccc3c2)CC1.Cl

>  <MEASUREMENT UNITS>
%

>  <OBSERVED RESULT>
90

$$$$

Prompt: Checklist item: Population Mitochondria Different-Phenotype (%) tested on HEK-293T, entry COc1cc(C(=O)N(CCCc2ccccc2)Cc2ccc(CC(=O)O)cc2)cc(OC)c1C , value?
Response: 46

Prompt: Which measured Population Mitochondria Different-Phenotype (%) belongs to C[C@H](NC(=O)c1c(C(F)F)nn(C)c1Oc1cccc(C(F)(F)F)c1)c1ccc(C(=O)O)cc1 [PALUPIPRANT] , tested on HEK-293T?
Response: 55

Prompt: Entry CC(C)(C)c1ccc(S(=O)(=O)Nc2ccc(Cl)cc2C(=O)c2cc[n+]([O-])cc2)cc1 [VERCIRNON] , system HEK-293T: what Population Mitochondria Different-Phenotype (%) was measured?
Response: 35

Prompt: Give Population Mitochondria Different-Phenotype (%) (HEK-293T) of the following compound: O=C(NCCO)c1cccc(-c2cc(Nc3ccc(OC(F)(F)F)cc3)ncn2)c1
Response: 69

Prompt: Hello, I am looking for reported Population Mitochondria Different-Phenotype (%) with HEK-293T for CN1CCN(c2nc3cc(C(F)(F)F)ccc3n3cccc23)CC1.O=C(O)/C=C\C(=O)O.O=C(O)/C=C\C(=O)O . Could you help?
Response: 73

Prompt: Form: Entry = Cc1ccc(-c2ccc(F)cc2COc2ccc(CCC(=O)O)cc2)cc1 | System = HEK-293T | Population Mitochondria Different-Phenotype (%) = ____
Response: 46

Prompt: Item CCCn1c(=O)c2[nH]c(C3CCCC3)nc2n(CCC)c1=O with HEK-293T - Population Mitochondria Different-Phenotype (%)?
Response: 58

Prompt: Which measured Population Mitochondria Different-Phenotype (%) belongs to O=C(NCC(=O)N1CC[C@H](N[C@H]2CC[C@@](O)(c3ccc(-c4ncccn4)cn3)CC2)C1)c1cccc(C(F)(F)F)c1 [PF-4136309] , tested on HEK-293T?
Response: 53

Prompt: Which measured Population Mitochondria Different-Phenotype (%) belongs to O=S(=O)(c1ccccc1)c1cnc2c(N3CCNCC3)cccc2c1 [INTEPIRDINE] , tested on HEK-293T?
Response: 70

Prompt: Request - read-out Population Mitochondria Different-Phenotype (%) | tested on HEK-293T | compound C[C@@H]1C[C@H]2[C@@H]3CCC4=CC(=O)C=C[C@]4(C)[C@@]3(F)[C@@H](O)C[C@]2(C)[C@@]1(O)C(=O)CO [DEXAMETHASONE]
Response: 44

Prompt: Fill in the recorded Population Mitochondria Different-Phenotype (%) for this compound, with HEK-293T as test system: COc1ccc2c(c1)C(C(=O)N(Cc1ccc(N(C)C)cc1)c1ccc(C(C)C)cc1)CCC2.Cl (stereo not drawn)
Response: 60

Prompt: Given the entry CN(C)c1ccnc2sc3c(=O)n(N4CCCCCC4)cnc3c12 , what Population Mitochondria Different-Phenotype (%) was observed with HEK-293T?
Response: 78
